Target: rat TRPV1 (rTRPV1) (Rattus norvegicus, UniProt O35433)
Construct: expressed in transfected cells; host or cells: HEK293T (transient)
Sequence (O35433 whole entry): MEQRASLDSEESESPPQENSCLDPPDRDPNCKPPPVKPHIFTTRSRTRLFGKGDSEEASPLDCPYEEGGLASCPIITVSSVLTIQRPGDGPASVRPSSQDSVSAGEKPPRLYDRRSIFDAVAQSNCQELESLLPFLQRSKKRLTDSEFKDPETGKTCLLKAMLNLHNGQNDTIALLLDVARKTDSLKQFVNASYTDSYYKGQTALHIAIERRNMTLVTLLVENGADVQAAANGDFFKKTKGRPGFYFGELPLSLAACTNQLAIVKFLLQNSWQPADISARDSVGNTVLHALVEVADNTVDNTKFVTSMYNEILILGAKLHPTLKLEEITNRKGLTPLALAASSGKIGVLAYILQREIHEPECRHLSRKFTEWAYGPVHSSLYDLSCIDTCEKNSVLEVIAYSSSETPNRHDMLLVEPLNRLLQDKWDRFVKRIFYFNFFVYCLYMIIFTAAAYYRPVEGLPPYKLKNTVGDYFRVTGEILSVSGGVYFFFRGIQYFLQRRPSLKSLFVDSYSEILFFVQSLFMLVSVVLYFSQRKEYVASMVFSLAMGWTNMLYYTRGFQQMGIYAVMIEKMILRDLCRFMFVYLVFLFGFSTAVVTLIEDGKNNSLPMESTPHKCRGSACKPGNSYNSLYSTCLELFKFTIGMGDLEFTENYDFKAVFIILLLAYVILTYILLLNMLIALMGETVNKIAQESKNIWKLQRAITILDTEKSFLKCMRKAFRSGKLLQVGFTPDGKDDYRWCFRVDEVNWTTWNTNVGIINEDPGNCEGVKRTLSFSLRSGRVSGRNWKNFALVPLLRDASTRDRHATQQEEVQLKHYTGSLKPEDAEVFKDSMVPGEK
Experiment: live-cell calcium imaging of HEK293T cells transiently expressing rat TRPV1
Format: cell-based
Conditions: compound 300 μM (0.3 mM); fura-2-loaded HEK293T transiently expressing rTRPV1; only capsaicin positive cells analyzed
measure: compound-evoked calcium response normalized to the capsaicin (2 μM)-evoked response

compound="CC1C[C@H]2CCC[C@H]3CC(=O)O[C@@]23C1 (stereo partly drawn)" assay_value="active compounds"
compound=C=C1C[C@H]2CCC[C@H]3CC(=O)O[C@@]23C1 assay_value="active compounds"

---

Target: UniProt O35433
Experiment: calcium imaging of rTRPV1 stably expressed in HEK293 cells (concentration-response, capsazepine block)
Conditions: normalized concentration-response, fit to the Hill equation; rTRPV1 stably expressed in HEK293 cells
measure: pEC50
Please treat pEC50 as minus the base-10 logarithm of the molar concentration.

smiles_repr=COc1cc(C[C@H]2C(=O)O[C@@]34CC=CC[C@H]3CC[C@@H]24)ccc1O system="UniProt O35433" measure=pEC50 assay_value=4.89

Below: the item to evaluate.
Request: # return pEC50 for O=C1C[C@@H]2CC[C@@H]3CC=CC[C@]32O1 , test system: UniProt O35433
Result: 3.90
